Assay: Cmax in dog at 1 mg/kg, iv
Format: ADME, organism-based, Canis lupus familiaris
Parameters: dose 1 mg/kg, route intravenous
Settings: in vivo
readout-name: Cmax
Number plus unit, in that order.

Quick one: Cmax of O=C(Nc1nc2cccc(-c3ccc(CN4CCS(=O)(=O)CC4)cc3)n2n1)C1CC1 [FILGOTINIB] ?
1140 ng/mL

* * *

Experiment: AUC (0 to infinity) in dog at 1 mg/kg, iv
Format: ADME, organism-based, Canis lupus familiaris
Set-up: time infinity, dose 1 mg/kg, route intravenous
Details: plasma
readout-name: AUC(0-inf) (ng·h/mL)
The reply should contain only the number, in ng·h/mL.

Which measured AUC(0-inf) value corresponds to `O=C(Nc1nc2cccc(-c3ccc(CN4CCS(=O)(=O)CC4)cc3)n2n1)C1CC1` ?
4100

* * *

Assay: Metabolic stability in rat liver microsomes assessed as compound remaining after 60 mins
Assay type: ADME
Conditions: read-out: Stability
readout-name: remaining at 1 h (%)
# unit: % | format: bare number

Below, each entry is followed by its recorded remaining at 1 h result.
O=C(Nc1nc2cccc(-c3ccc(CNC(=O)C(F)(F)F)cc3)n2n1)C1CC1; 80
O=C(Nc1nc2cccc(-c3ccc(CN4CCOCC4)cc3)n2n1)C1CC1; 38
O=C(Nc1nc2cccc(-c3ccc(CN4CCC(F)(F)CC4)cc3)n2n1)C1CC1; 26
O=C(Nc1nc2cccc(-c3ccc(CN4CCS(=O)(=O)CC4)cc3)n2n1)C1CC1; 65
C[C@@H]1CCN(C(=O)CC#N)C[C@@H]1N(C)c1ncnc2[nH]ccc12; 27

Turning now to a further record.
Given O=C(Nc1nc2cccc(-c3ccc(CNC4CCS(=O)(=O)C4)cc3)n2n1)C1CC1 (stereo unspecified) , state its recorded remaining at 1 h.
85

* * *

Quick reference: Ratio IC50 of the listed items.
Species: Homo sapiens
Test: Selectivity index, ratio of IC50 for human recombinant TYK2 to IC50 for human recombinant JAK1

For orientation, consider the following solved cases.
COc1ncc(-c2cccc3nc(NC(=O)C4CC4)nn23)cn1; > 4.1
O=C(Nc1nc2cccc(-c3cn[nH]c3)n2n1)C1CC1; > 3

Let us examine a further case.
Requested field: Ratio IC50. Item: `O=C(Nc1nc2cccc(-c3cccc4ncccc34)n2n1)C1CC1`
> 1.6

* * *

Biological target: Tyrosine-protein kinase JAK1 (Homo sapiens, UniProt P23458)
Sequence (P23458 whole entry): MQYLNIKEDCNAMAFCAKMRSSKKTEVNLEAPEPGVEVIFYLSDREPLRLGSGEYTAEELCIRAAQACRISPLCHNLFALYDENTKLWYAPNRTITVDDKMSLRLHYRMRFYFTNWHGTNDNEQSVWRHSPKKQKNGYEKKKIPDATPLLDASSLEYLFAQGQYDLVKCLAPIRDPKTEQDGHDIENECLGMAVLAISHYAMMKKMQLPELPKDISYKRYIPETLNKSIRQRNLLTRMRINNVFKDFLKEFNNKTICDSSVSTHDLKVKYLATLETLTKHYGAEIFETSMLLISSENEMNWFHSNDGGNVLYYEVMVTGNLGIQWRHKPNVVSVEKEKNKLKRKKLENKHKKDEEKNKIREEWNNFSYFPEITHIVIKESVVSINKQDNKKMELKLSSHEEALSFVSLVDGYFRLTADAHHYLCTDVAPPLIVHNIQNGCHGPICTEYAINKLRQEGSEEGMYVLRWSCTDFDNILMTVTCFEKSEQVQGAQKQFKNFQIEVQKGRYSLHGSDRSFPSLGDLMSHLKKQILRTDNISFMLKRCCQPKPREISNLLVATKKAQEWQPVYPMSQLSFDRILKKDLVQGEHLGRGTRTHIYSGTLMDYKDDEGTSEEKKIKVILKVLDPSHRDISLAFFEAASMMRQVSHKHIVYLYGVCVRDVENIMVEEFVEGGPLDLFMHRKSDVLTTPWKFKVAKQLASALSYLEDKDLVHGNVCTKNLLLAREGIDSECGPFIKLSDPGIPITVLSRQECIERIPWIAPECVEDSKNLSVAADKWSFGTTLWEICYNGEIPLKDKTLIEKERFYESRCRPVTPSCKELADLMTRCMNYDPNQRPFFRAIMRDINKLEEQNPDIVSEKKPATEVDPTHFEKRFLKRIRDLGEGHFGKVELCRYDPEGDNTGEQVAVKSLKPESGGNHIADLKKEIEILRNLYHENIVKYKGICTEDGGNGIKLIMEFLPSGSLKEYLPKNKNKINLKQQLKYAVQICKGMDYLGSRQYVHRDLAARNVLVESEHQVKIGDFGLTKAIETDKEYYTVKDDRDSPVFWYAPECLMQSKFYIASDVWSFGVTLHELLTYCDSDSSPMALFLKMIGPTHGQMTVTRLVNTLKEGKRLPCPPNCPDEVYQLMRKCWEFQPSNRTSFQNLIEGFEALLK
Test: Inhibition of human recombinant JAK1
Settings: read-out: IC50
Quick reference for IC50 among some compounds
Report only the number, with the unit nM understood.

Consider the compound shown here: `O=C(Nc1nc2cccc(-c3cccc(OCc4ccccc4)c3)n2n1)C1CC1` What is its recorded IC50?
103

I am curious: what IC50 value has been reported for `O=C(Nc1nc2cccc(-c3cccc4ncccc34)n2n1)C1CC1` ?
2550

# lookup: IC50 of `COc1ccc(-c2cccc3nc(NC(=O)C4CC4)nn23)cn1`
547

Given `O=C(NCCc1ccn(-c2ccccc2)n1)c1ccc(-c2cccc3nc(NC(=O)C4CC4)nn23)cc1` , state its recorded IC50.
0.6

* * *

Molecular target: Tyrosine-protein kinase JAK1 (Homo sapiens, UniProt P23458)
Test: Inhibition of human recombinant JAK1
Details: read-out: IC50
pIC50: −log10 of the molar value.
readout-name: pIC50

COc1ccc(-c2cccc3nc(N4CCCCC4)nn23)cc1; < 5.00

Which pIC50 value is on record for `COc1ccc(-c2cccc3nc(NC(C)=O)nn23)cc1` ?
< 5.40

Quick check: pIC50 of `COc1ccc(-c2cccc3nc(NCC4CC4)nn23)cc1` ?
< 5.00
